Origin of measurements: patent US20180327367A1

Tested on: Methicillin Resistant Staphylococcus aureus strain USA 300, NRS384
Assay: Minimum inhibitory concentration, broth micro-dilution (CLSI), S. aureus
Assay type: cell-based
Settings: Staphylococcus aureus, MRSA / NRS 384 / USA300, 22 h, MRSA USA 300 NRS384; 35° C., 22 hours; read-out: MIC (μg/mL) S. aureus
measure.name: MIC (µg/mL)
Write the value in µg/mL as a bare number.

Solved cases (10 shown):
compound="CCCCCCCc1ccc(C(=O)N[C@@H](CCN)C(=O)N(C)[C@@H]2C(=O)N[C@@H](C)C(=O)N[C@H](C(=O)NCC#N)Cc3ccc(OCCN)c(c3)-c3cc2ccc3OCCN)c(C)c1 [Compound 198]" observed=0.063
compound="CCCCCCc1ccc(C(=O)N2CCC(N)C[C@@H]2C(=O)N(C)[C@@H]2C(=O)N[C@@H](C)C(=O)N[C@H](C(=O)NCC#N)Cc3ccc(OCCN)c(c3)-c3cc2ccc3OCCN)c(C)c1 (single isomer, unassigned) [Compound 526-1]" observed=0.19
compound="CCCCCCCCCCCC(=O)N[C@@H](CCCO)C(=O)N(C)[C@@H]1C(=O)N[C@@H](C)C(=O)N[C@H](C(=O)NCC#N)Cc2ccc(OCCN)c(c2)-c2cc1ccc2OCCN [Compound 264]" observed=0.13
compound="CCCCCCCCc1ccc(C(=O)N[C@@H](CCN)C(=O)N(C)[C@@H]2C(=O)N[C@@H](C)C(=O)N[C@H](C(=O)NCC#N)Cc3ccc(OCCN)c(c3)-c3cc2ccc3OCCN)c(OCC(N)=O)c1 [Compound 407]" observed=0.047
compound="CC(C)CCc1ccc(-c2ccc(C(=O)N[C@@H](CCN)C(=O)N(C)[C@@H]3C(=O)N[C@@H](C)C(=O)N[C@H](C(=O)NCC#N)Cc4ccc(OCCN)c(c4)-c4cc3ccc4OCCN)cc2)cc1 [Compound 177]" observed=0.094
compound="CCCCCCCn1cc(C(=O)N[C@@H](CCN)C(=O)N(C)[C@@H]2C(=O)N[C@@H](C)C(=O)N[C@H](C(=O)NCC#N)Cc3ccc(OCCN)c(c3)-c3cc2ccc3OCCN)c(C)nc1=O [Compound 301]" observed=4
compound="CCCCCCCCCCCC(=O)N[C@@H](CO)C(=O)N(C)[C@@H]1C(=O)N[C@@H](C)C(=O)N[C@H](C(=O)N[C@H](C#N)C2CC2)Cc2ccc(OCCN)c(c2)-c2cc1ccc2OCCN [Compound 420]" observed=4
compound="CCCCc1ccc(-c2ccc(C(=O)N[C@@H](CCCN)C(=O)N(C)[C@@H]3C(=O)N[C@@H](C)C(=O)N[C@H](C(=O)NCC#N)Cc4ccc(OCCN)c(c4)-c4cc3ccc4OCCN)c(C)c2)cc1 [Compound 142]" observed=0.039
compound="CCCCCCCCc1ccc(C(=O)N[C@@H](CCN)C(=O)N(C)[C@@H]2C(=O)N[C@@H](C)C(=O)N[C@H](C(=O)NCC#N)Cc3ccc(OCCN)c(c3)-c3cc2ccc3OCCN)c(SC)c1 [Compound 185]" observed=0.19
compound="Cc1cc(C2CCCCC2)ccc1C(=O)N[C@@H](CCN)C(=O)N(C)[C@@H]1C(=O)N[C@@H](C)C(=O)N[C@H](C(=O)NCC#N)Cc2ccc(OCCN)c(c2)-c2cc1ccc2OCCN [Compound 431]" observed=0.063

Sample CCCCCCc1ccc(-c2ncc(C(=O)N[C@@H](CCN)C(=O)N(C)[C@@H]3C(=O)N[C@@H](C)C(=O)N[C@H](C(=O)NCC#N)Cc4ccc(O)c(c4)-c4cc3ccc4OCCN)c(C)n2)cc1 [Compound 504] ; MIC observed: 0.094

Lab note: Cc1cc(CCC2CCCCC2)ccc1C(=O)N[C@@H](CCN)C(=O)N(C)[C@@H]1C(=O)N[C@@H](C)C(=O)N[C@H](C(=O)NCC#N)Cc2ccc(OCCN)c(c2)-c2cc1ccc2OCCN [Compound 204] gave MIC of 0.031

// recorded MIC for CCCCCCCOc1ccc(C(=O)N[C@@H](CCCN)C(=O)N(C)[C@@H]2C(=O)N[C@@H](C)C(=O)N[C@H](C(=O)NCC#N)Cc3ccc(OCCN)c(c3)-c3cc2ccc3OCCN)c(Cl)c1 [Compound 282] : 0.016

The reported value for Cc1nc(-c2ccc(C(C)C)cc2)ncc1C(=O)N[C@@H](CCN)C(=O)N(C)[C@@H]1C(=O)N[C@@H](C)C(=O)N[C@H](C(=O)NCC#N)Cc2ccc(OCCN)c(c2)-c2cc1ccc2OCCN [Compound 160] in terms of MIC is 0.047

MIC in this record for CCCCCCCCNC(=O)N[C@@H](CCN)C(=O)N(C)[C@@H]1C(=O)N[C@@H](C)C(=O)N[C@H](C(=O)NCC#N)Cc2ccc(OCCN)c(c2)-c2cc1ccc2OCCN [Compound 402] : 0.38

Documented MIC of CCCCCCCCCCCC(=O)N[C@@H](CCN)C(=O)N(C)[C@@H]1C(=O)N[C@@H](C)C(=O)N[C@H](C(=O)NCC#N)Cc2ccc(OCCN)c(c2)-c2cc1ccc2OCCN [Compound 103] : 0.023

Form: compound = CCCCCCCOc1ccc(C(=O)N[C@@H](CCN)C(=O)N(C)[C@@H]2C(=O)N[C@@H](C)C(=O)N[C@H](C(=O)NCC#N)Cc3ccc(OCCN)c(c3)-c3cc2ccc3OCCN)c(C)c1C [Compound 294] ; MIC = 0.063

GET /value?item= CCCCCCCCCCCCCC(=O)N(C)[C@@H]1C(=O)N[C@@H](C)C(=O)N[C@H](C(=O)NCC#N)Cc2ccc(OCCN(C)C)c(c2)-c2cc1ccc2OCCN(C)C [Compound 460] &field=MIC returns 2

Record summary for CCCCCCc1ccc(C(=O)N2CCC(N)C[C@H]2C(=O)N(C)[C@@H]2C(=O)N[C@@H](C)C(=O)N[C@H](C(=O)NCC#N)Cc3ccc(OCCN)c(c3)-c3cc2ccc3OCCN)c(C)c1 (stereo partly shown) [Compound 526-3] : reported MIC = 0.063

====

Test system: Escherichia coli ATCC 25922
Experiment: Minimum inhibitory concentration, broth micro-dilution (CLSI), E. coli
Format: cell-based
Settings: Escherichia coli, ATCC25922, 22 h, read-out: MIC (μg/mL) E. coli, E. coli ATCC 25922; 35° C., 22 hours
measure.name: MIC

molecule="CCCCCCCCC(O)C(=O)NC(CO)C(=O)N(C)C1C(=O)NC(C)C(=O)NC(C(=O)NCC#N)Cc2ccc(OCCN)c(c2)-c2cc1ccc2OCCN (single isomer, unassigned) [Compound 393-P1]" observed="> 64 µg/mL"
molecule=CCCCc1ccc(C(=O)NCC(=O)NCC(=O)N[C@@H](CCN)C(=O)N(C)[C@@H]2C(=O)N[C@@H](C)C(=O)N[C@H](C(=O)NCC#N)Cc3ccc(OCCN)c(c3)-c3cc2ccc3OCCN)c(C)c1 observed="32 µg/mL"

Switching to the query record.
// recorded MIC for C[C@@H]1NC(=O)[C@@H](N(C)C(=O)[C@H](CO)NC(=O)c2ccc(-c3ccc(Cl)cc3)nc2)c2ccc(OCCN)c(c2)-c2cc(ccc2OCCN)C[C@@H](C(=O)NCC#N)NC1=O : 64 µg/mL

====

Test system: Methicillin Resistant Staphylococcus aureus strain USA 300, NRS384
Assay: Minimum inhibitory concentration, broth micro-dilution (CLSI), S. aureus
Type: cell-based
Details: Staphylococcus aureus, MRSA / NRS 384 / USA300, 22 h, MRSA USA 300 NRS384; 35° C., 22 hours; read-out: MIC (μg/mL) S. aureus
Below, each entry is listed with its recorded MIC.
Reply numerically in µg/mL, unit not repeated.

// solved cases for MIC follow
chem_smiles=CCCCCCCc1cc(C)c(C(=O)N[C@@H](CCN)C(=O)N(C)[C@@H]2C(=O)N[C@@H](C)C(=O)N[C@H](C(=O)NCC#N)Cc3ccc(OCCN)c(c3)-c3cc2ccc3OCCN)c(Cl)c1 observed=0.063
chem_smiles=CCCCc1ccc(C)c(C(=O)N[C@@H](CCCN)C(=O)N(C)[C@@H]2C(=O)N[C@@H](C)C(=O)N[C@H](C(=O)NCC#N)Cc3ccc(OCCN)c(c3)-c3cc2ccc3OCCN)c1 observed=1.5

Now for another entry.
MIC in this record for CCCCCCCCCCC(=O)N[C@@H](CCN)C(=O)N(C)[C@@H]1C(=O)N[C@@H](C)C(=O)N[C@H](C(=O)NCC#N)Cc2ccc(OCCN)c(c2)-c2cc1ccc2OCCN : 0.047

====

Property: log10(MIC); scope: individual compounds
System: Methicillin Resistant Staphylococcus aureus strain USA 300, NRS384
Test: Minimum inhibitory concentration, broth micro-dilution (CLSI), S. aureus
Format: cell-based
Details: Staphylococcus aureus, MRSA / NRS 384 / USA300, 22 h, MRSA USA 300 NRS384; 35° C., 22 hours; read-out: MIC (μg/mL) S. aureus
Heads up: the numbers are on a log10 scale; they represent MIC in µg/mL.

Examples from the recorded data:
chem_smiles=CCCCCCCCc1ccc(C(=O)NCC(=O)N(C)[C@@H]2C(=O)N[C@@H](C)C(=O)N[C@H](C(=O)NCC#N)Cc3ccc(OCCN)c(c3)-c3cc2ccc3OCCN)c(C)c1 observed=-0.60
chem_smiles=Cc1cc(CC(C)(C)C)ccc1C(=O)N[C@@H](CCN)C(=O)N(C)[C@@H]1C(=O)N[C@@H](C)C(=O)N[C@H](C(=O)NCC#N)Cc2ccc(OCCN)c(c2)-c2cc1ccc2OCCN observed=-0.72
chem_smiles=CCCCCCCCc1ccc2c(=O)n([C@@H](CCN)C(=O)N(C)[C@@H]3C(=O)N[C@@H](C)C(=O)N[C@H](C(=O)NCC#N)Cc4ccc(OCCN)c(c4)-c4cc3ccc4OCCN)c(C)nc2c1 observed=-0.30
chem_smiles=Cc1cc(-c2cnc(CC(C)C)nc2)ccc1C(=O)N[C@@H](CCN)C(=O)N(C)[C@@H]1C(=O)N[C@@H](C)C(=O)N[C@H](C(=O)NCC#N)Cc2ccc(OCCN)c(c2)-c2cc1ccc2OCCN observed=-1.33

Shift focus to the following entry.
Entry C[C@@H]1NC(=O)[C@@H](N(C)C(=O)[C@H](CCCCN)NC(=O)c2ccc(-c3ccc(Cl)cc3)cc2)c2ccc(O)c(c2)-c2cc(ccc2O)C[C@@H](C(=O)N[C@H](C#N)CO)NC1=O , log10(MIC) reported as 0.60
